For each of the compounds below, state its MST Average.
# target: 30S IC (30S-bound IF2, Bpy-tRNAi) (Escherichia coli)
# Construct: 6xHis (N); made in house
# assay name: 30S IC formation measured by MST at increasing concentrations of IF2 with guanosine nucleotides
# Type: binding
# condition description: Fig 2A; IF2 5.00 µM
Number plus unit, in that order.

Use these answered entries as a reference point.
>  <compound>
Nc1nc2c(ncn2[C@@H]2O[C@H](COP(=O)(O)OP(=O)(O)OP(=O)(O)O)[C@@H](OP(=O)(O)OP(=O)(O)O)[C@H]2O)c(=O)[nH]1

>  <observed value>
1015.83 a.u.

$$$$
>  <compound>
Nc1nc2c(ncn2[C@@H]2O[C@H](COP(=O)(O)OP(=O)(O)O)[C@@H](O)[C@H]2O)c(=O)[nH]1 [GDP, guanosine diphosphate]

>  <observed value>
968.29 a.u.

$$$$
>  <compound>
Nc1nc2c(ncn2[C@@H]2O[C@H](COP(=O)(O)OP(=O)(O)OP(=O)(O)O)[C@@H](O)[C@H]2O)c(=O)[nH]1 [GTP, guanosine triphosphate]

>  <observed value>
1077.76 a.u.

$$$$

Request the reported MST Average associated with `Nc1nc2c(ncn2[C@@H]2O[C@H](COP(=O)(O)OP(=O)(O)O)[C@@H](OP(=O)(O)OP(=O)(O)O)[C@H]2O)c(=O)[nH]1`
968.50 a.u.

---

# target: 30S IC (30S-bound IF2, Bpy-tRNAi) (Escherichia coli, UniProt P0A705)
# Construct: 6xHis (N); made in house
# Sequence (P0A705 whole entry, looked up): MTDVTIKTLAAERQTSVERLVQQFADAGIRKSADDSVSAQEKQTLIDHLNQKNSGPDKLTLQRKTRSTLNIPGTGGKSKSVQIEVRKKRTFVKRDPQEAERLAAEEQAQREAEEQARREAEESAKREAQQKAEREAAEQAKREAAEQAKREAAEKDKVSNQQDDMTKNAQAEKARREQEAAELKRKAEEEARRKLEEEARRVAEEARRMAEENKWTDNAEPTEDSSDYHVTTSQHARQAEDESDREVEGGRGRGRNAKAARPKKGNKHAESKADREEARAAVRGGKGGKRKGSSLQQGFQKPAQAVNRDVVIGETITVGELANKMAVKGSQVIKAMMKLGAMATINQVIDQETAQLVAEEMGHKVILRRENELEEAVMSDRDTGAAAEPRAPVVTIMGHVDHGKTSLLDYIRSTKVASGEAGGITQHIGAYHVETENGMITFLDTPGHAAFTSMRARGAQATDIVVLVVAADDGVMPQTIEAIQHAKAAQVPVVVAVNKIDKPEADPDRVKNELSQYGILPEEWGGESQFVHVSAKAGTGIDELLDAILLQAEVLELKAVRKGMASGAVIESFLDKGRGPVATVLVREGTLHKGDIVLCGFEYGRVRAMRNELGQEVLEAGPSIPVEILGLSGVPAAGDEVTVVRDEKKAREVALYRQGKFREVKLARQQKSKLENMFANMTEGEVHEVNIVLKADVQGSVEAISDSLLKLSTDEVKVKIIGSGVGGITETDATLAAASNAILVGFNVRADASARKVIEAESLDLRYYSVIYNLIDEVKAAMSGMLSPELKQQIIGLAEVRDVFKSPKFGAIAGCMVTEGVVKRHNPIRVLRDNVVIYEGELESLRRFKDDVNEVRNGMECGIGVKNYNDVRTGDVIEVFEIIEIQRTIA
# assay name: 30S IC formation measured by MST at increasing concentrations of IF2 with guanosine nucleotides
# Format: binding
# condition description: Fig 2A; IF2 0.31 µM
metric name: MST Average (a.u.)
Answers are plain numbers, in a.u..

Use these answered entries as a reference point.
>  <molecule>
Nc1nc2c(ncn2[C@@H]2O[C@H](COP(=O)(O)OP(=O)(O)O)[C@@H](OP(=O)(O)OP(=O)(O)O)[C@H]2O)c(=O)[nH]1 [ppGpp]

>  <MST Average / a.u.>
944.83

$$$$
>  <molecule>
Nc1nc2c(ncn2[C@@H]2O[C@H](COP(=O)(O)OP(=O)(O)O)[C@@H](O)[C@H]2O)c(=O)[nH]1 [GDP, guanosine diphosphate]

>  <MST Average / a.u.>
942.67

$$$$
>  <molecule>
Nc1nc2c(ncn2[C@@H]2O[C@H](COP(=O)(O)OP(=O)(O)OP(=O)(O)O)[C@@H](OP(=O)(O)OP(=O)(O)O)[C@H]2O)c(=O)[nH]1 [pppGpp]

>  <MST Average / a.u.>
951.85

$$$$

Next molecule, please.
Request the reported MST Average associated with Nc1nc2c(ncn2[C@@H]2O[C@H](COP(=O)(O)OP(=O)(O)OP(=O)(O)O)[C@@H](O)[C@H]2O)c(=O)[nH]1 [GTP, guanosine triphosphate]
1076.43
